In this section, each of the compounds is paired with its reported inhibition at 1 µM.
- measurement target: serotoninergic 5-HT2A receptor (Homo sapiens, UniProt P28223)
- Sequence (P28223 whole entry): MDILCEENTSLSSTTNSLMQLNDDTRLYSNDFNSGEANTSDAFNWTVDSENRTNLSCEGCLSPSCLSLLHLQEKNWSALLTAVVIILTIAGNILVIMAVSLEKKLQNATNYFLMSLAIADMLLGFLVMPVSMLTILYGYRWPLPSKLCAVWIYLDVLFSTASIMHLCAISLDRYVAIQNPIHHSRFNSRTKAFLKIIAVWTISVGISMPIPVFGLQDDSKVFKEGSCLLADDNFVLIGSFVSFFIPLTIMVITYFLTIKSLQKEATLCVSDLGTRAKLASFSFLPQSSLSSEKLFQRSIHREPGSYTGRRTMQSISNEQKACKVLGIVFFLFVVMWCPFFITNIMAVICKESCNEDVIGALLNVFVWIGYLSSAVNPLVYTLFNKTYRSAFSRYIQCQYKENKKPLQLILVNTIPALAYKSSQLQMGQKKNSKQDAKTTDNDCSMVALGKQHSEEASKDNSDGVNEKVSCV
- method summary: Cellular functional assay, serotoninergic 5-HT2A receptor (agonism/antagonism)
- Type: cell-based
- condition summary: read-out: 5-HT2A -antag [%]
Kindly answer with a numeric value in %, unit omitted.

Reference set (8 entries):
molecule | measurement target | numeric result
O=S(=O)(NCCCCN1CCN(c2cccc3[nH]ccc23)CC1)c1cc2ccc(Cl)cc2s1 | serotoninergic 5-HT2A receptor (Homo sapiens, UniProt P28223) | 62
O=S(=O)(NCCCCN1CCN(c2nsc3ccccc23)CC1)c1cc2ccccc2s1 | serotoninergic 5-HT2A receptor (Homo sapiens, UniProt P28223) | 94
O=S(=O)(NCCCCN1CCN(c2nsc3ccccc23)CC1)c1csc2ccccc12 | serotoninergic 5-HT2A receptor (Homo sapiens, UniProt P28223) | 93
O=S(=O)(NCCCCN1CCC(c2noc3cc(F)ccc23)CC1)c1ccc2cc(Cl)ccc2c1 | serotoninergic 5-HT2A receptor (Homo sapiens, UniProt P28223) | 102
O=S(=O)(NCCCCN1CCN(c2cccc3[nH]ccc23)CC1)c1cc2ccccc2s1 | serotoninergic 5-HT2A receptor (Homo sapiens, UniProt P28223) | 41
O=S(=O)(NCCCCN1CCN(c2nsc3ccccc23)CC1)c1cc2ccc(Cl)cc2s1 | serotoninergic 5-HT2A receptor (Homo sapiens, UniProt P28223) | 99
O=S(=O)(NCCCCN1CCN(c2noc3ccccc23)CC1)c1cccc2ccccc12 | serotoninergic 5-HT2A receptor (Homo sapiens, UniProt P28223) | 100
N#Cc1cccc(S(=O)(=O)NCCCN2CCC(c3noc4cc(F)ccc34)CC2)c1 | serotoninergic 5-HT2A receptor (Homo sapiens, UniProt P28223) | 100

Notebook: `O=S(=O)(NCCCN1CCC(c2noc3cc(F)ccc23)CC1)c1ccc2cn[nH]c2c1` , inhibition at 1 µM read as 100
